Reference source for all entries: ChEMBL document CHEMBL3627614

# Assayed System: Protease (Human immunodeficiency virus 1)
# Sequence (Q9YQ12 whole entry): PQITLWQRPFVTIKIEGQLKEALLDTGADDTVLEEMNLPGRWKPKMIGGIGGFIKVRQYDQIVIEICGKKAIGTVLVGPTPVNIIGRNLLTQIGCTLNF
Assay Endpoint: log10(Ki) (log10 of the value in nM)
Heads up: the numbers are on a log10 scale; they represent Ki in nM.

Q. Need log10(Ki), item CCCN(C)C(=O)c1cc(OC)cc(C(=O)N[C@@H](Cc2ccccc2)[C@H](O)CN(CC(C)C)S(=O)(=O)c2ccc(OC)cc2)c1
A. 1.31

Q. Then what about the molecule COCc1coc(CN(C)C(=O)c2cccc(C(=O)N[C@@H](Cc3ccccc3)[C@H](O)CN(CC(C)C)S(=O)(=O)c3ccc(OC)cc3)c2)n1 ?
A. -0.51

Q. Then what about the molecule COC[C@H]1C[C@H](O)CN1C(=O)c1cccc(C(=O)N[C@@H](Cc2ccccc2)[C@H](O)CN(CC(C)C)S(=O)(=O)c2ccc(OC)cc2)c1 ?
A. -0.57

Q. Then what about the molecule CCCN(CCC)C(=O)c1cccc(C(=O)N[C@@H](Cc2ccccc2)[C@H](O)CN(CC(C)C)S(=O)(=O)c2ccc(OC)cc2)c1 ?
A. 1.09

Q. Then what about the molecule COc1ccc(S(=O)(=O)N(CC(C)C)C[C@@H](O)[C@H](Cc2ccccc2)NC(=O)c2cccc(C(=O)N3CCOCC3)c2)cc1 ?
A. -0.38

Q. Then what about the molecule Cc1coc(CN(C)C(=O)c2cccc(C(=O)N[C@@H](Cc3ccccc3)[C@H](O)CN(CC(C)C)S(=O)(=O)c3ccc(CO)cc3)c2)n1 ?
A. -0.20

Q. Then what about the molecule CCCN(C)C(=O)c1cccc(C(=O)N[C@@H](Cc2ccccc2)[C@H](O)CN(CC(C)C)S(=O)(=O)c2ccc(OC)cc2)c1 ?
A. 0.71

Q. Then what about the molecule COc1ccc(S(=O)(=O)N(CC(C)C)C[C@@H](O)[C@H](Cc2ccccc2)NC(=O)c2cccc(C(=O)N(C)Cc3nc(C)oc3C)c2)cc1 ?
A. -0.77
